# Kd values compiled below
Molecular target: pancreatic phospholipase A2 (bpPLA2) (Bos taurus, UniProt P00593 P00593:23-145)
Sequence (P00593 23-145, one chain of several): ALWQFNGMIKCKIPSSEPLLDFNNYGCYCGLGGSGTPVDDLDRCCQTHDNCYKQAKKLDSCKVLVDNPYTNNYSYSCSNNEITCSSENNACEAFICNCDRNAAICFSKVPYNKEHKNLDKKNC
Assay: filter; specificity control, like random RNA; TBSC
Answer format: numeric, µM implied, no suffix.

Example entries begin here.
{"columns": ["binder", "attribute measured", "reported"],
 "data": [
  ["2 (ssRNA) RNA: GGGAGCUCAGAAUAAACGCUCAAUCUCAUUGCUCGUCGCACGGCGUAACCUAUUUCGACAUGAGGCCCGGAUCCGGC", "Kd", 20],
  ["87 (ssRNA) RNA: GGGAGCUCAGAAUAAACGCUCAAGCUCUGGGAUGAUGCCCACUGUCCAGCAUCUUCGACAUGAGGCCCGGAUCCGGC", "Kd", 20]
]}

Give the measured Kd of 72 (ssRNA) RNA: GGGAGCUCAGAAUAAACGCUCAAGACCUCUGCUUACAGCCCGGCUGAGACACUUCGACAUGAGGCCCGGAUCCGGC .
29

Now try 80 (ssRNA) RNA: GGGAGCUCAGAAUAAACGCUCAAGCUCUGGGAUGAUGCCCAGUGUCCAGCAUCUUCGACAUGAGGCCCGGAUCCGGC .
29
